Test system: SETVI (Foxtail, Green)
experiment.summary: Preemergence herbicidal evaluation
Assay type: in vivo, Setaria viridis
test.parameters: preemergence, 0.0625 kg/ha, rated 4-5 weeks after treatment, 0-9 scale
Source text: Results of herbicide evaluation are expressed on a rating scale (0-9). The scale is based upon a visual observation of plant stand, vigor, malformation, size, chlorosis and overall plant appearance as compared with a control. […] The compounds evaluated are reported by compound number given in Example 37.
readout.type: SETVI rating
Number only, please.

Item: C=CCN1C(=O)C(CC(=O)OC(C)C(=O)OCC)SC1=Nc1cc(-n2c(=O)ccn(C)c2=O)c(F)cc1Cl (centres unmarked) | System: SETVI (Foxtail, Green) | SETVI rating: 0.0

Item: CCOC(=O)CN1C(=O)C(CC(=O)NS(=O)(=O)c2ccccc2)SC1=Nc1cc(-n2c(=O)cc(C(F)(F)F)n(C)c2=O)c(F)cc1Cl (centres unmarked) | System: SETVI (Foxtail, Green) | SETVI rating: 1.0

Item: CCOC(=O)CN1C(=O)C(CC(=O)OCCF)SC1=Nc1cc(-n2c(=O)cc(C(F)(F)F)n(C)c2=O)c(F)cc1Cl (centres unmarked) | System: SETVI (Foxtail, Green) | SETVI rating: 7.0

Item: `C=CCOC(=O)CN1C(=O)CSC1=Nc1cc(-n2c(=O)cc(C(F)(F)F)n(C)c2=O)c(F)cc1Cl` | System: SETVI (Foxtail, Green) | SETVI rating: 4.5

Item: CN1C(=O)C(CC(N)=O)SC1=Nc1cc(-n2c(=O)cc(C(F)(F)F)n(C)c2=O)c(F)cc1Cl (centres unmarked) | System: SETVI (Foxtail, Green) | SETVI rating: 0.0
